Here the recorded Relative Luminescence Activity 6h-f-CTZ Imax is given for each entry.
# assay-method-text: Substrate specificities of KAZ mutants (ZZ-fused, crude enzyme), 6h-f-CTZ
# Assay type: biochemical
# condition: 1 μg substrate, maximum intensity of luminescence
property-label: Relative Luminescence Activity 6h-f-CTZ Imax

molecule | reading
KAZ-A54I: KAZ with single amino acid substitution A54I, SEQ ID NO: 6 (protein) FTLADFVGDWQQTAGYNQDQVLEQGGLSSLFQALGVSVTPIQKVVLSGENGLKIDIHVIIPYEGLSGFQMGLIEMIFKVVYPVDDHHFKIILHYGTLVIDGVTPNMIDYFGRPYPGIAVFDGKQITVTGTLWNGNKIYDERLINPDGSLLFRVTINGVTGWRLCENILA | 1.6
KAZ-V44I-A54I-Y138I: KAZ mutant with three amino acid substitutions V44I, A54I and Y138I, SEQ ID NO: 16 (protein) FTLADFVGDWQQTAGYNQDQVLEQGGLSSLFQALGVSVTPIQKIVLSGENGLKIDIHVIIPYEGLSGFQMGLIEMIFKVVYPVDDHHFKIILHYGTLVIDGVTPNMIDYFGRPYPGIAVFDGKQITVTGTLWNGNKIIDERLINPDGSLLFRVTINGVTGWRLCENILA | 9.5
KAZ-V44I-Y138I: KAZ mutant with two amino acid substitutions V44I and Y138I, SEQ ID NO: 12 (protein) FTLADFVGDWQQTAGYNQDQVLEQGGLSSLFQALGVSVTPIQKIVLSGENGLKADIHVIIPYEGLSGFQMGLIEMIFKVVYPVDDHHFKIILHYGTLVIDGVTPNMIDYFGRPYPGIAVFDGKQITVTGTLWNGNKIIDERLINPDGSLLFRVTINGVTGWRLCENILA | 3.6

Reference source for all entries: patent US10907134B2
